# experimental-system: T1, SpAKKAA (non-toxigenic staphylococcal protein A variant) (Staphylococcus aureus, UniProt A0A0H3K686 37-327)
# T1 construct: The four substitutions are made in each of the five domains (20 in all); Purified from E. coli; also called non-toxigenic protein A
# assay-text: ELISA, antigen-coated plate, mAb titrated
Below, each entry is listed alongside its reported Ka.
measured-attribute: Ka (M⁻¹)

- mAb 2F2 (antibody, V domains shown, Mouse IgG2b hybridoma mAb) VH: VKLVESGGDLVKPGGSLKLSCAASRFTFSSYVMSWVRQTPEKRLEWVASIGSGGTTYYPDTVKGRFTISRDNARNILYLQMSSLRSDDTAMYYCTRGRGYGFAWYFDVWGAGTTVTVSS VL: TIVLTQSPAIMSASPGEKVTMTCSASSSVSYMYWYQQKPGSSPRLLIYDTSNLASGVPVRFSGSGSGTSYSLTISRMEAEDAATYYCQQWSSYPPTFGGGTKLEIK: 1.9e+09
- mAb 5A10 (antibody, V domains shown, Mouse IgG1 hybridoma mAb raised against SpAKKAA; also called 5A10-HRP; HRP-5A10) VH: EVKLVESGGGLVKPGGSLKLSCAASGFAFSNYDMSWVRQTPEKRLEWVATISSGGTYPYYPDSVKGRFTISRDNAKNTLYLQLSSLRSEDTALYYCARGGFLITTRDYYAMDYWGQGTSVTVSS VL: TIVLTQSPAIMSASPGEKVTMTCSASSSVSYMYWYQQKPGSSPRLLIYDTSNLASGVPVRFSGSGSGTSYSLTISRMEAEDAATYYCQQWSSYPPTFGGGTKLEIK: 8.47e+09
- mAb 8E2 (antibody, V domains shown, Mouse IgG1 hybridoma mAb) VH: KVQLQQSGAGLVKPGASVKLSCKASGYTFTEYSIHWVKQSSGQGLEWIGWFYPGSGYIKYNEKFKDKATLTADKSSSTVYMEFSRLTSEDSAVYFCARHGYGNYVGYAMDYWGQGTSVTVSS VL: DIQMTQSPASLSASVGETVTITCRASEIIYSYLAWYQQKQGKSPQLLVYFAKTLAEGVPSRFSGSGSGTQFSLKINSLQPEDFGIYYCQHHYGTPYTFGGGTKLEIK: 1.56e+09
